Listing of recorded Plant response rating, Pigweed, Palmer by entry.
Tested on: pigweed, palmer
Assay: Test C preemergence
Format: in vivo, Amaranthus palmeri
Details: Preemergence, 500 g ai/ha; visual rating after 10 days, 0 to 100 scale (0 no effect, 100 complete control)
experimental.endpoint: Plant response rating, Pigweed, Palmer

- molecule.smiles: "Cc1cccc2c1O[C@H](C)CN2C(=O)c1cccc(-c2ncn(C(C)C)n2)c1"
  test.target: "pigweed, palmer"
  result: 0
- molecule.smiles: "Cc1cccc2c1O[C@@H](C)CN2C(=O)c1cccc(-n2cnc(N(C)C)n2)c1"
  test.target: "pigweed, palmer"
  result: 90
- molecule.smiles: "Cc1ccc(-n2cnc(C(C)(F)F)n2)cc1C(=O)N1C[C@H](C)Oc2c(Cl)cccc21"
  test.target: "pigweed, palmer"
  result: 100
- molecule.smiles: "COc1cc(-n2cnc(C(C)C)n2)cc(C(=O)N2C[C@H](C)Oc3c(Cl)cccc32)c1OC"
  test.target: "pigweed, palmer"
  result: 30

---

Listed here are compounds together with their documented Plant response rating, Barnyardgrass.
Tested on: barnyardgrass
Assay: Test C postemergence
Format: in vivo, Echinochloa crusgalli
Settings: Postemergence, 500 g ai/ha, 10 days, visual 0 to 100 scale (0 no effect, 100 complete control)
Text: […]

- molecule.smiles: "COc1ccc(-n2cnc(C(C)(C)O)n2)cc1C(=O)N1C[C@H](C)Oc2c(C)cccc21"
  Plant response rating, Barnyardgrass: 90
- molecule.smiles: "COc1cc(C(=O)N2C[C@H](C)Oc3c(Cl)cccc32)cc(-n2cnc(C)n2)c1"
  Plant response rating, Barnyardgrass: 70
- molecule.smiles: "C[C@H]1CN(C(=O)c2cc(-n3cncn3)cc3c2OCCO3)c2cccc(Cl)c2O1"
  Plant response rating, Barnyardgrass: 90
- molecule.smiles: "CC(C)=C(C)c1ncn(-c2cccc(C(=O)N3C[C@H](C)Oc4c(C)cccc43)c2)n1"
  Plant response rating, Barnyardgrass: 90

---

System: ragweed
Assay: Test C postemergence
Assay type: in vivo, Ambrosia artemisiifolia
Settings: Postemergence, 1000 g ai/ha, 10 days, visual 0 to 100 scale (0 no effect, 100 complete control)

- compound: "CCC1CN(C(=O)c2ccnc(-c3cccnc3)c2)c2cccc(Cl)c2O1 (racemic)"
  test.target: "ragweed"
  Plant response rating, Ragweed: 0
- compound: "Cc1nsc(-c2cccc(C(=O)N3C[C@H](C)Oc4c(Cl)cccc43)c2)n1"
  test.target: "ragweed"
  Plant response rating, Ragweed: 30
- compound: "Cc1cccc2c1O[C@@H](C)CN2C(=O)c1cccc(-n2cncc2C#N)c1"
  test.target: "ragweed"
  Plant response rating, Ragweed: 30
- compound: "Cc1cc(-c2cccc(C(=O)N3C[C@H](C)Oc4c(C)cccc43)c2)cs1"
  test.target: "ragweed"
  Plant response rating, Ragweed: 30
- compound: "Cc1cnc(-c2cccc(C(=O)N3C[C@H](C)Oc4c(C)cccc43)c2)s1"
  test.target: "ragweed"
  Plant response rating, Ragweed: 0

---

Test system: pigweed, palmer
Test: Test A postemergence
Format: in vivo, Amaranthus palmeri
Conditions: 1000 g ai/ha, Postemergence; 0 to 100 scale
Could you mark each record Criterion met if its Plant response rating, Pigweed, Palmer falls strictly under 60, and Criterion not met if it equals or exceeds it?

- compound: "Cc1cc(C(=O)N2CC(C)Oc3c(Cl)cccc32)cc(-n2cncn2)c1 (stereo not drawn) [Compound 32]"
  test.target: "pigweed, palmer"
  answer.label: "Criterion not met"
- compound: "Cc1noc(-c2cccc(C(=O)N3C[C@H](C)Oc4c(Cl)cccc43)c2)n1 [Compound 121]"
  test.target: "pigweed, palmer"
  answer.label: "Criterion met"
- compound: "Cc1cccc2c1O[C@@H](C)CN2C(=O)c1cccc(-n2cc(C#N)cn2)c1 [Compound 134]"
  test.target: "pigweed, palmer"
  answer.label: "Criterion met"
- compound: "O=C(c1ccnc(-n2cncn2)c1)N1CC(C(F)(F)F)Oc2c(Cl)cccc21 (stereo not drawn) [Compound 34]"
  test.target: "pigweed, palmer"
  answer.label: "Criterion not met"
- compound: "Cc1ccc(-n2cncn2)cc1C(=O)N1CC(C)Oc2c(Cl)cccc21 (stereo not drawn) [Compound 33]"
  test.target: "pigweed, palmer"
  answer.label: "Criterion not met"
- compound: "Cc1nc(-c2cccc(C(=O)N3C[C@H](C)Oc4c(Cl)cccc43)c2)cs1 [Compound 125]"
  test.target: "pigweed, palmer"
  answer.label: "Criterion met"
- compound: "C[C@H]1CN(C(=O)c2cccc(-n3cncn3)c2)c2cc([N+](=O)[O-])ccc2O1 [Compound 49]"
  test.target: "pigweed, palmer"
  answer.label: "Criterion met"

These data points were gathered from patent US20260262643A1.
